System: Staphylococcus aureus
experimentalProtocol: Antibacterial activity against Staphylococcus aureus ATCC 6538 after 24 hrs by micro dilution method
Assay type: functional
assaySetup: ATCC 6538, 24 h
measuredQuantity: MIC (µM)

(I) CCCn1c(Cc2cc(OC)c(OC)cc2S(=O)(=O)N(C)C)n[nH]c1=O
(II) COc1cc(Cc2n[nH]c(=O)n2C(C)(C)C)c(S(=O)(=O)N(C)C)cc1OC
### Prompt Of I and II , whose reported MIC is the larger number? Provide the label of your selected option as the answer.
### Response II

---

System: Fulvia fulva
experimentalProtocol: Antifungal activity against Fulvia fulva treated for 72 hrs followed by sub-cultivated for 5 days by serial dilution method
Format: functional
measuredQuantity: MFC (µM)
// units = µM; emit number, no label

Previously resolved entries follow.
> print(dat)
                                   molecule   assaysystem  measuredquantity  unitspec  quantitativereadout
1  CCCNc1nnc(Cc2cc(OC)c(OC)cc2S(=O)(=O)N(C)C)o1  Fulvia fulva               MFC        µM                  260
2  CCCCn1c(Cc2cc(OC)c(OC)cc2S(=O)(=O)N(C)C)n[nH]c1=O  Fulvia fulva               MFC        µM                  250
3  CCCn1c(Cc2cc(OC)c(OC)cc2S(=O)(=O)N(C)C)n[nH]c1=O  Fulvia fulva               MFC        µM                  260
4  CCCCn1c(Cc2cc(OC)c(OC)cc2S(=O)(=O)N(C)C)n[nH]c1=S  Fulvia fulva               MFC        µM                  240
5  CCNc1nnc(Cc2cc(OC)c(OC)cc2S(=O)(=O)N(C)C)s1  Fulvia fulva               MFC        µM                   70

### Prompt What does the record list as MFC for COc1cc(Cc2n[nH]c(=S)n2C)c(S(=O)(=O)N(C)C)cc1OC ?
### Response 140

### Prompt What does the record list as MFC for CC(=O)N1CCN(c2ccc(OCC3COC(Cn4ccnc4)(c4ccc(Cl)cc4Cl)O3)cc2)CC1 (stereo not drawn) ?
### Response 950

### Prompt What does the record list as MFC for COc1cc(Cc2nnc(NC(C)(C)C)o2)c(S(=O)(=O)N(C)C)cc1OC ?
### Response 250

These data points were gathered from ChEMBL document CHEMBL1944580.
